The reported numbers originate from PubChem BioAssay (NCI).

Test system: DMS 114 small cell lung
Experiment: NCI tumour cell line growth inhibition, 48 h

{"columns": ["MOLECULE", "VALUE_COMPARATOR", "TGI, µM"],
 "data": [
  ["Nc1ncnc2c1ncn2C1OC(CSC(F)(F)F)C(O)C1O (stereo not given)", ">", 100],
  ["C/C=C(\\C)c1cc(=O)c2c(C)cc3c(c2o1)C(=O)c1c(O)c(C2CC(C)(N(C)C)C(O)C(C)O2)cc(C2CC(N(C)C)C(O)C(C)O2)c1C3=O (stereo not given)", "=", 4.45],
  ["O=S1CSCS1 (stereo not given)", ">", 100],
  ["O=C1c2ccccc2C(=O)C2C1C1C(=O)c3ccccc3C(=O)C21 (stereo not given)", ">", 100],
  ["CCC1=C(C)/C(=C/c2[nH]c(C(Br)Br)c(CC)c2C)N=C1C(Br)Br", "=", 88.6],
  ["O=C(CC(=O)C(=O)Nc1ccccc1)CC(c1ccccc1)c1c(O)c2ccccc2oc1=O (stereo not given)", ">", 100],
  ["NC(C/[N+]([O-])=N/O)C(=O)O (stereo not given)", "=", 10.9],
  ["C#CCSc1nc(N)c2ncn(C3OC(CO)C(O)C3O)c2n1 (stereo not given)", ">", 100],
  ["COc1ccc(C2=Nc3ccccc3SC(C)C2)cc1 (stereo not given)", ">", 100],
  ["CN1C(OCc2ccccc2)c2c(ccc3c2OCO3)C2C=Cc3cc4c(cc3C21)OCO4 (stereo not given)", "=", 0.854]
]}

* * *

Known TGI of a selection of compounds
Test system: XF 498 CNS
Experiment: NCI tumour cell line growth inhibition, 48 h
QUANTITY: TGI

{"columns": ["COMPOUND", "QUANTITY", "REPORTED_RESULT"],
 "data": [
  ["NC(N)=NS(=O)(=O)c1ccc(Nc2c3ccccc3nc3c(C(=O)N4CCN(CCO)CC4)cccc23)cc1", "TGI", "> 100 µM"],
  ["CN(C)c1ccc2c(c1)CN1C(=O)c3ccccc3C1=N2", "TGI", "> 100 µM"],
  ["COc1c(C2=NC(C(C)C)CO2)ccc2ccccc12 (stereo not drawn)", "TGI", "> 100 µM"],
  ["C=C[C@@]1(C)CCC2(O)C(CCC3C2(C)CCC[C@@]3(C)COC(=O)CC(=O)OC)C1 (stereo partly drawn)", "TGI", "40.6 µM"],
  ["C#CCSc1nc(N)c2ncn(C3OC(CO)C(O)C3O)c2n1 (stereo not drawn)", "TGI", "> 100 µM"],
  ["Cc1ccc(C2CC(c3ccc([N+](=O)[O-])cc3)=Nc3ccccc3S2)cc1 (stereo not drawn)", "TGI", "55.7 µM"],
  ["CC1SC(c2ccccc2)N(Nc2c3ccccc3nc3ccccc23)C1=O (stereo not drawn)", "TGI", "> 100 µM"],
  ["CC(C)(C)N/N=C(\\Cc1occc(=O)c1O)C(=O)Nc1ccc([N+](=O)[O-])cc1[N+](=O)[O-]", "TGI", "> 100 µM"],
  ["Cc1c(C(=O)CC(=O)C(=O)Nc2c(C(C)C)cccc2C(C)C)[n+](=O)c2ccccc2n1[O-]", "TGI", "15 µM"],
  ["CC1=CCC2(C#N)CCC1C2O (stereo not drawn)", "TGI", "> 100 µM"],
  ["COc1cc(=O)oc(/C=C/C=O)c1C", "TGI", "32.4 µM"],
  ["CCCCSN1C(=O)c2ccccc2C1=S", "TGI", "> 100 µM"],
  ["CC1(C)C(c2ccccc2)C12CCC1(C2=O)C(c2ccccc2)C1(C)C (stereo not drawn)", "TGI", "36.1 µM"]
]}

* * *

Tested on: SW-620 colon
Experiment: NCI tumour cell line growth inhibition, 48 h

{"columns": ["MOLECULE", "TGI"],
 "data": [
  ["COc1cc(/C=N/Nc2ncnc3c2cnn3C(C)C)ccc1O", "> 25 µM"],
  ["O=C(/C=C/C12c3ccccc3C(c3ccccc31)C1C(=O)N(c3ccccc3)C(=O)C12)c1ccc(Cl)cc1 (configuration not stated)", "> 100 µM"],
  ["CC(C)(C)N/N=C(\\Cc1occc(=O)c1O)C(=O)Nc1ccc([N+](=O)[O-])cc1[N+](=O)[O-]", "> 100 µM"],
  ["COC(=O)C1=C(OC(=O)/C(=C/c2ccc(Cl)cc2Cl)c2ccc(Cl)cc2Cl)C(C(=O)OC)[C@@]2(O)[C@@H](C(=O)OC)[C@H](C)C[C@@H]1[C@@H]2C(=O)OC (some centres not stated)", "> 100 µM"],
  ["COc1cc(N2CCN(C(C)C)CC2)ccc1Nc1nc(Nc2cccc3ncccc23)c2cc[nH]c2n1", "14.9 µM"],
  ["CC1(C)CCC[C@@]2(C)C1C[C@H](O)[C@@]1(C)O[C@@](C)([C@H](O)CO)CCC21 (some centres not stated)", "> 100 µM"],
  ["CC1=NN(c2nc(N)nc(/C(C#N)=C/c3ccc([N+](=O)[O-])o3)n2)C(C)(C)C1", "3.71 µM"],
  ["Oc1ccc(Cl)cc1-c1[nH]c(=S)nc(-c2ccccc2)c1Cl", "> 100 µM"],
  ["NC(=O)c1cc(-c2ccncc2)cc(-c2ccccc2)c1N", "> 25 µM"],
  ["COc1ccc(CN2C(=O)C(Cc3cc(OC)c(OC)c(C)c3OC)NC(=O)/C2=C/c2cc(OC)c(OC)c(C)c2OC)cc1 (configuration not stated)", "> 100 µM"],
  ["Cc1ccc(N/C(Sc2ccccc2)=C(/C(Cl)=C(Cl)Cl)[N+](=O)[O-])c(C)c1", "36.7 µM"],
  ["COc1ccc2c(c1)[C@]1(C[C@H]1c1ccc3c(/C=C/c4ccc(CN5C[C@@H](C)O[C@@H](C)C5)cc4)n[nH]c3c1)C(=O)N2", "> 61 µM"],
  ["C=C(C)[C@@H]1CC[C@]2(C)CC[C@]3(C)[C@H](CC[C@@H]4[C@@]5(C)CC[C@H](OC(=O)c6ccccc6)C(C)(C)[C@@H]5CC[C@]43C)[C@@H]12", "> 100 µM"],
  ["CCCCN(CCCC)c1ccc(C(=N)c2ccc(N(C)C)cc2)cc1", "1.78 µM"],
  ["Nc1nc(Cl)c(N)c(NCC2(CO)CC(Cc3ccccc3)C2)n1 (configuration not stated)", "> 100 µM"],
  ["Nc1ncnc2c1ncn2C1OC(CSC(F)(F)F)C(O)C1O (configuration not stated)", "> 100 µM"],
  ["COc1ccc(OC)c([N+](=O)[O-])c1-c1nc2sccn2c1/C=N/N=C(N)N", "> 100 µM"],
  ["CC(N=C(N)N)C(=O)O (configuration not stated)", "> 100 µM"],
  ["CCN(CC)CCNc1ccc2ncn3c4c(OC)ccc(OC)c4c(=O)c1c23", "18.2 µM"],
  ["Cc1ccc(C2CC(c3ccc([N+](=O)[O-])cc3)=Nc3ccccc3S2)cc1 (configuration not stated)", "46.6 µM"],
  ["O=C(C/C(=N\\NC(=O)C[n+]1ccccc1)C(=O)Nc1nc2ccc([N+](=O)[O-])cc2s1)CC(c1ccccc1)c1c(O)c2ccccc2oc1=O (configuration not stated)", "> 100 µM"],
  ["COC(=O)c1ccccc1/C=C1/Cc2cccc(C)c2C1=O", "> 100 µM"],
  ["O=[N+]([O-])c1cc([N+](=O)[O-])c(Cl)c(Cl)c1Cl", "1.94 µM"],
  ["COc1cc(-c2n/c(=C\\c3c(O)[nH]c4ccc(Cl)cc34)cc3c2=Nc2ccccc2-3)cc(OC)c1OC", "1.6 µM"],
  ["N#CCCN(CCC#N)C(=O)c1cccc(C(=O)N(CCC#N)CCC#N)c1", "26.5 µM"],
  ["COC1(C(C)(C)C)C=C(C(C)(C)C)P(=O)(O)O1 (configuration not stated)", "> 100 µM"],
  ["NCCC(=O)N[C@H](Cc1cc(O)c(O)c(SCC(NC(=O)CC[C@H](N)C(=O)O)C(=O)NCC(=O)O)c1)C(=O)O (some centres not stated)", "> 50 µM"],
  ["COc1ccc(-c2nn(-c3ccc(NC(=O)c4ccc(Cl)c(C(F)(F)F)c4)cc3)cc2-c2ccncc2)cc1Cl", "> 100 µM"],
  ["CCOC(=O)c1cc(/C=C/C(C)=C/C(=O)OC)oc1-c1ccccc1", "> 100 µM"],
  ["NCC[Se][Se]CCN", "48.9 µM"],
  ["COc1ccc(-c2cnoc2-c2ccc(OC)c(OC)c2)cc1OC", "> 37.5 µM"],
  ["COC(=O)[C@H]1[C@H]2C[C@@H]3c4[nH]c5cc(OC)ccc5c4CCN3C[C@H]2C[C@@H](OC(=O)c2cc(OC)c(OC)c(OC)c2)[C@@H]1OC", "> 100 µM"],
  ["O=C(c1ccccc1)C(c1ccccc1)C1(O)C(=O)Nc2ccccc21 (configuration not stated)", "> 100 µM"],
  ["CCOc1cc(-c2nc3ccccn3c2/N=C/c2cc([N+](=O)[O-])cc([N+](=O)[O-])c2O)ccc1O", "> 100 µM"],
  ["CC(C)(N)CO[C@H]1C[C@H]2CC[C@@]1(C)C2(C)C", "54.4 µM"],
  ["COc1ccc(-c2cc(-c3ccccc3)n(C3OCC(OC(C)=O)C(OC(C)=O)C3OC(C)=O)c(=S)c2C#N)cc1 (configuration not stated)", "> 100 µM"],
  ["CSc1ccccc1P(c1ccccc1SC)c1ccccc1SC", "> 100 µM"]
]}
